- Test system: Staphylococcus capitis
- test: Antibacterial activity against Staphylococcus capitis ATCC 2784 assessed as decrease in survival at 50 x 10^-6 M by turbidimetric method
- Type: functional
Quick reference: Activity of the listed items.
assay endpoint: Activity (%)

1) COc1c(/C=N/CCC/N=C/c2c(O)cc3oc(C)cc(=O)c3c2OC)c(O)cc2oc(C)cc(=O)c12; 55
2) COc1c(/C=N/CC/N=C/c2c(O)cc3oc(C)cc(=O)c3c2OC)c(O)cc2oc(C)cc(=O)c12; 40
3) Cc1cc(=O)c2c(O)c(/C=N/CC/N=C/c3c(O)cc4oc(C)cc(=O)c4c3O)c(O)cc2o1; 50
4) Cc1cc(=O)c2c(O)c(/C=N/CCC/N=C/c3c(O)cc4oc(C)cc(=O)c4c3O)c(O)cc2o1; 70
